Source: patent US4314028A

Recorded Antitumor therapeutic index B16 values for a group of compounds are listed next.
# Tested on: Melanotic melanoma B16
# Experiment description: Antitumor activity in mice, melanotic melanoma B16
# Format: in vivo, BDF1 mice
# Test context: single dose LD50/ID50; copper-chelated form unless otherwise stated

>  <Compound>
Cc1c(N)nc(C(CC(N)=O)NCC(N)C(N)=O)nc1C(=O)NC(C(=O)NC(C)C(O)CC(=O)NC(C(=O)NC(OC1OC(C)C(N)C(O)C1O)C(O)c1nc(-c2nc(C(=O)NCCNCCO)cs2)cs1)C(C)O)C(OC1OC(CO)C(O)C(O)C1OC1OC(CO)C(O)C(OC(N)=O)C1O)c1c[nH]cn1 (centres unmarked)

>  <Antitumor therapeutic index B16>
110

$$$$
>  <Compound>
Cc1c(N)nc(C(CC(N)=O)NCC(N)C(N)=O)nc1C(=O)NC(C(=O)NC(C)C(O)CC(=O)NC(C(=O)NC(OC1OC(C)C(N)C(O)C1O)C(O)c1nc(-c2nc(C(=O)NCCC[S+](C)C)cs2)cs1)C(C)O)C(OC1OC(CO)C(O)C(O)C1OC1OC(CO)C(O)C(OC(N)=O)C1O)c1cnc[nH]1.Cl.Cl.Cl.[Cl-] (centres unmarked)

>  <Antitumor therapeutic index B16>
97

$$$$
>  <Compound>
Cc1c(N)nc(C(CC(N)=O)NCC(N)C(N)=O)nc1C(=O)NC(C(=O)NC(C)C(O)CC(=O)NC(C(=O)NC(OC1OC(C)C(N)C(O)C1O)C(O)c1nc(-c2nc(C(=O)NCCCN3CCCCC3C)cs2)cs1)C(C)O)C(OC1OC(CO)C(O)C(O)C1OC1OC(CO)C(O)C(OC(N)=O)C1O)c1c[nH]cn1 (centres unmarked) [Tallysomycin S13b]

>  <Antitumor therapeutic index B16>
152

$$$$
>  <Compound>
Cc1c(N)nc(C(CC(N)=O)NCC(N)C(N)=O)nc1C(=O)NC(C(=O)NC(C)C(O)CC(=O)NC(C(=O)NC(OC1OC(C)C(N)C(O)C1O)C(O)c1nc(-c2nc(C(=O)NCCNCC(C)O)cs2)cs1)C(C)O)C(OC1OC(CO)C(O)C(O)C1OC1OC(CO)C(O)C(OC(N)=O)C1O)c1c[nH]cn1 (centres unmarked)

>  <Antitumor therapeutic index B16>
148

$$$$
>  <Compound>
Cc1c(N)nc(C(CC(N)=O)NCC(N)C(N)=O)nc1C(=O)NC(C(=O)NC(C)C(O)CC(=O)NC(C(=O)NC(OC1OC(C)C(N)C(O)C1O)C(O)c1nc(-c2nc(C(=O)NCCCC(N)CC(=O)NCCCCN)cs2)cs1)C(C)O)C(OC1OC(CO)C(O)C(O)C1OC1OC(CO)C(O)C(OC(N)=O)C1O)c1c[nH]cn1 (centres unmarked) [Tallysomycin S10a]

>  <Antitumor therapeutic index B16>
69

$$$$
>  <Compound>
CNCCCNC(=O)c1csc(-c2csc(C(O)C(NC(=O)C(NC(=O)CC(O)C(C)NC(=O)C(NC(=O)c3nc(C(CC(N)=O)NCC(N)C(N)=O)nc(N)c3C)C(OC3OC(CO)C(O)C(O)C3OC3OC(CO)C(O)C(OC(N)=O)C3O)c3c[nH]cn3)C(C)O)OC3OC(C)C(N)C(O)C3O)n2)n1 (centres unmarked) [Tallysomycin S11b]

>  <Antitumor therapeutic index B16>
30

$$$$
>  <Compound>
Cc1c(N)nc(C(CC(N)=O)NCC(N)C(N)=O)nc1C(=O)NC(C(=O)NC(C)C(O)CC(=O)NC(C(=O)NC(OC1OC(C)C(N)C(O)C1O)C(O)c1nc(-c2nc(C(=O)NCCCN(C)C)cs2)cs1)C(C)O)C(OC1OC(CO)C(O)C(O)C1OC1OC(CO)C(O)C(OC(N)=O)C1O)c1c[nH]cn1 (centres unmarked)

>  <Antitumor therapeutic index B16>
188

$$$$
>  <Compound>
Cc1c(N)nc(C(CC(N)=O)NCC(N)C(N)=O)nc1C(=O)NC(C(=O)NC(C)C(O)CC(=O)NC(C(=O)NC(OC1OC(C)C(N)C(O)C1O)C(O)c1nc(-c2nc(C(=O)NCCCC(N)CC(=O)NCCCN)cs2)cs1)C(C)O)C(OC1OC(CO)C(O)C(O)C1OC1OC(CO)C(O)C(OC(N)=O)C1O)c1c[nH]cn1 (centres unmarked)

>  <Antitumor therapeutic index B16>
30

$$$$

----------
# System: Candida albicans IAM 4888
# Experiment description: MIC, two-fold agar dilution method
# Format: cell-based
# Test context: Sabouraud agar

>  <Compound>
Cc1c(N)nc(C(CC(N)=O)NCC(N)C(N)=O)nc1C(=O)NC(C(=O)NC(C)C(O)CC(=O)NC(C(=O)NC(OC1OC(C)C(N)C(O)C1O)C(O)c1nc(-c2nc(C(=O)NCC(O)CN)cs2)cs1)C(C)O)C(OC1OC(CO)C(O)C(O)C1OC1OC(CO)C(O)C(OC(N)=O)C1O)c1c[nH]cn1 (centres unmarked)

>  <minimum inhibitory concentration (MIC)>
25

$$$$
>  <Compound>
Cc1c(N)nc(C(CC(N)=O)NCC(N)C(N)=O)nc1C(=O)NC(C(=O)NC(C)C(O)CC(=O)NC(C(=O)NC(OC1OC(C)C(N)C(O)C1O)C(O)c1nc(-c2nc(C(=O)NCCCNC(C)c3ccccc3)cs2)cs1)C(C)O)C(OC1OC(CO)C(O)C(O)C1OC1OC(CO)C(O)C(OC(N)=O)C1O)c1c[nH]cn1 (centres unmarked) [Tallysomycin S14b]

>  <minimum inhibitory concentration (MIC)>
> 100

$$$$

----------
# Tested on: Candida albicans IAM 4888
# Experiment description: MIC, two-fold agar dilution method
# Type: cell-based
# Test context: Sabouraud agar
# Procedure: The minimum inhibitory concentrations (MIC) of the semibiosynthetic tallysomycin derivatives of the present invention were determined against fungi and gram-positive, gram-negative and acid-fast bacteria by the two-fold agar dilution method. Nutrient agar was used for bacteria and Sabouraud agar for fungi. The results are shown in the table below comparatively with tallysomycin A and B.
Recorded minimum inhibitory concentration (MIC) values for a group of molecules are listed next.

>  <Molecule>
Cc1c(N)nc([C@H](CC(N)=O)NC[C@@H](N)C(N)=O)nc1C(=O)N[C@H](C(=O)N[C@H](C)[C@@H](O)CC(=O)N[C@@H](C(=O)NC(O[C@@H]1O[C@@H](C)[C@@H](N)[C@@H](O)[C@H]1O)C(O)c1nc(-c2nc(C(=O)NCCCNCCCCN)cs2)cs1)[C@@H](C)O)C(O[C@@H]1O[C@@H](CO)[C@H](O)[C@@H](O)[C@@H]1O[C@H]1O[C@H](CO)[C@@H](O)[C@@H](OC(N)=O)[C@@H]1O)c1cnc[nH]1 (stereo partly drawn) [Tallysomycin B, reference compound]

>  <minimum inhibitory concentration (MIC)>
6.3

$$$$
>  <Molecule>
Cc1c(N)nc(C(CC(N)=O)NCC(N)C(N)=O)nc1C(=O)NC(C(=O)NC(C)C(O)CC(=O)NC(C(=O)NC(OC1OC(C)C(N)C(O)C1O)C(O)c1nc(-c2nc(C(=O)NCCCNCCO)cs2)cs1)C(C)O)C(OC1OC(CO)C(O)C(O)C1OC1OC(CO)C(O)C(OC(N)=O)C1O)c1c[nH]cn1 (stereo not drawn) [Tallysomycin S6b]

>  <minimum inhibitory concentration (MIC)>
25

$$$$
>  <Molecule>
Cc1c(N)nc(C(CC(N)=O)NCC(N)C(N)=O)nc1C(=O)NC(C(=O)NC(C)C(O)CC(=O)NC(C(=O)NC(OC1OC(C)C(N)C(O)C1O)C(O)c1nc(-c2nc(C(=O)NCCN)cs2)cs1)C(C)O)C(OC1OC(CO)C(O)C(O)C1OC1OC(CO)C(O)C(OC(N)=O)C1O)c1c[nH]cn1 (stereo not drawn) [Tallysomycin S3b]

>  <minimum inhibitory concentration (MIC)>
12.5

$$$$
